Assay: Clearance in rat at 2 mg/kg, iv and 10 mg/kg, po
Format: ADME, organism-based
Details: in vivo
measured-attribute: clearance (mL/min/kg)
Numbers only here, please. The scale is mL/min/kg.

-- ask Form field: reported clearance of CCc1ccc(-c2c(-c3c[nH]c(C)n3)c(=O)[nH]c3ccc(C#N)cc23)cc1
-- reply 93

Recorded values, source ChEMBL document CHEMBL1141632.
